Measured on: hemoglobin (Homo sapiens, UniProt P68871+P69905)
Sequence (P69905 2-142): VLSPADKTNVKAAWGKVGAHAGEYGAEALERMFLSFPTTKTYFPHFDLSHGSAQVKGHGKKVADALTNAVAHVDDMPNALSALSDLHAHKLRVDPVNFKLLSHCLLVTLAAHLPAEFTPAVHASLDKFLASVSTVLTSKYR
Sequence (P68871 2-147): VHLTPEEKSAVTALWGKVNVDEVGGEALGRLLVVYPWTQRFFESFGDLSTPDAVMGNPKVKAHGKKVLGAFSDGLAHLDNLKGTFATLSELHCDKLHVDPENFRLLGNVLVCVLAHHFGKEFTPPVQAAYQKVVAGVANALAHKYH
Protocol text: Stability of hemoglobin in samples preserved at 37° C. in preservation solution containing no haptoglobin, Hb measured by latex agglutination method (Examples 8, 9 and Table 10)
Applied conditions: Feces 2; 38 h at 37° C.; no phenylboronic acid, sugar 100 mmol/L
Measured endpoint: Recovery ratio with respect to Hb after 0 days (%)

INSERT INTO measurements (molecule, assay_value) VALUES
  ('O=C(CO)[C@@H](O)[C@H](O)[C@H](O)CO [Fructose, fructose]', 0),
  ('OC[C@H]1O[C@@](CO)(O[C@H]2O[C@H](CO)[C@@H](O)[C@H](O)[C@H]2O)[C@@H](O)[C@@H]1O [Sucrose, sucrose]', 1),
  ('OC[C@H]1O[C@H](O[C@H]2O[C@H](CO)[C@@H](O)[C@H](O)[C@H]2O)[C@H](O)[C@@H](O)[C@@H]1O [Trehalose, trehalose]', 0),
  ('OC[C@@H](O)[C@@H](O)[C@H](O)[C@H](O)CO [Mannitol, mannitol]', 0),
  ('OC[C@@H](O)[C@@H](O)[C@H](O)[C@@H](O)CO [Sorbitol, sorbitol]', 0);

Cited source for all entries: patent US12215140B2
